System: E. coli clinical strain 2018XJ30
Experiment: microbe, parasite or virus in culture
Assay type: cell-based, Escherichia coli
Conditions: clinical strain 2018XJ30
Where a SMILES comes first, the peptide text is derived from it.
A collection of molecules and their measured MIC

As a guide, the following entries are already answered.
{"columns": ["MOLECULE", "RECORDED ENDPOINT", "REPORTED"],
 "data": [
  ["COC(=O)[C@H](CCCNC(=N)N)NC(=O)CCCCC(=O)O[C@H](c1ccc(S(C)(=O)=O)cc1)[C@@H](CF)NC(=O)C(Cl)Cl [Compound E13]", "MIC", ">100 µM"],
  ["CS(=O)(=O)c1ccc([C@@H](OC(=O)CCCCC(=O)N[C@@H](CCCNC(=N)N)C(N)=O)[C@@H](CF)NC(=O)C(Cl)Cl)cc1 [Compound E14]", "MIC", ">100 µM"],
  ["N=C(N)NCCC[C@H](N)C(N)=O [Compound D2]", "MIC", ">100 µM"],
  ["N=C(N)NCCC[C@H](NC(=O)[C@@H](N)CCCNC(=N)N)C(N)=O [Compound D3] (H-Arg-Arg-NH2)", "MIC", ">100 µM"],
  ["COC(=O)[C@@H](N)CCCNC(=N)N [Compound D1]", "MIC", ">100 µM"]
]}

Incoming: Sample COC(=O)[C@H](CCCNC(=N)N)NC(=O)CCCC(=O)O[C@H](c1ccc(S(C)(=O)=O)cc1)[C@@H](CF)NC(=O)C(Cl)Cl [Compound E7] — what was its MIC?
Outgoing: >100 µM

Incoming: Entry under review: N=C(N)NCCC[C@H](NC(=O)[C@H](CCCNC(=N)N)NC(=O)[C@H](CCCNC(=N)N)NC(=O)[C@@H](N)CCCNC(=N)N)C(N)=O [Compound D4] (H-RRRR-NH2) . Reported MIC?
Outgoing: >100 µM

Incoming: Query: MIC; subject: N=C(N)NCCC[C@H](NC(=O)[C@H](CCCNC(=N)N)NC(=O)[C@H](CCCNC(=N)N)NC(=O)[C@H](CCCNC(=N)N)NC(=O)[C@H](CCCNC(=N)N)NC(=O)[C@@H](N)CCCNC(=N)N)C(N)=O [Compound D5]
Outgoing: 100 µM

Incoming: Param item = CS(=O)(=O)c1ccc([C@@H](OC(=O)CCCC(=O)N[C@@H](CCCNC(=N)N)C(N)=O)[C@@H](CF)NC(=O)C(Cl)Cl)cc1 [Compound E8] ; retrieve measured MIC.
Outgoing: >100 µM

Incoming: Would you mind telling me what MIC value was observed for N=C(N)NCCC[C@H](NC(=O)[C@H](CCCNC(=N)N)NC(=O)[C@H](CCCNC(=N)N)NC(=O)[C@H](CCCNC(=N)N)NC(=O)[C@H](CCCNC(=N)N)NC(=O)[C@H](CCCNC(=N)N)NC(=O)[C@H](CCCNC(=N)N)NC(=O)[C@@H](N)CCCNC(=N)N)C(N)=O [Compound D6] ?
Outgoing: 50 µM

Incoming: Data request, read-out MIC, for COC(=O)[C@H](CCCNC(=N)N)NC(=O)CCC(=O)O[C@H](c1ccc(S(C)(=O)=O)cc1)[C@@H](CF)NC(=O)C(Cl)Cl [Compound E1]
Outgoing: 25 µM

Incoming: Which MIC value belongs to CS(=O)(=O)c1ccc([C@@H](OC(=O)CCC(=O)N[C@@H](CCCNC(=N)N)C(N)=O)[C@@H](CF)NC(=O)C(Cl)Cl)cc1 [Compound E2] ?
Outgoing: 25 µM
